Target: GCN2 (Homo sapiens, UniProt Q9P2K8)
Sequence (Q9P2K8 whole entry, species assumed): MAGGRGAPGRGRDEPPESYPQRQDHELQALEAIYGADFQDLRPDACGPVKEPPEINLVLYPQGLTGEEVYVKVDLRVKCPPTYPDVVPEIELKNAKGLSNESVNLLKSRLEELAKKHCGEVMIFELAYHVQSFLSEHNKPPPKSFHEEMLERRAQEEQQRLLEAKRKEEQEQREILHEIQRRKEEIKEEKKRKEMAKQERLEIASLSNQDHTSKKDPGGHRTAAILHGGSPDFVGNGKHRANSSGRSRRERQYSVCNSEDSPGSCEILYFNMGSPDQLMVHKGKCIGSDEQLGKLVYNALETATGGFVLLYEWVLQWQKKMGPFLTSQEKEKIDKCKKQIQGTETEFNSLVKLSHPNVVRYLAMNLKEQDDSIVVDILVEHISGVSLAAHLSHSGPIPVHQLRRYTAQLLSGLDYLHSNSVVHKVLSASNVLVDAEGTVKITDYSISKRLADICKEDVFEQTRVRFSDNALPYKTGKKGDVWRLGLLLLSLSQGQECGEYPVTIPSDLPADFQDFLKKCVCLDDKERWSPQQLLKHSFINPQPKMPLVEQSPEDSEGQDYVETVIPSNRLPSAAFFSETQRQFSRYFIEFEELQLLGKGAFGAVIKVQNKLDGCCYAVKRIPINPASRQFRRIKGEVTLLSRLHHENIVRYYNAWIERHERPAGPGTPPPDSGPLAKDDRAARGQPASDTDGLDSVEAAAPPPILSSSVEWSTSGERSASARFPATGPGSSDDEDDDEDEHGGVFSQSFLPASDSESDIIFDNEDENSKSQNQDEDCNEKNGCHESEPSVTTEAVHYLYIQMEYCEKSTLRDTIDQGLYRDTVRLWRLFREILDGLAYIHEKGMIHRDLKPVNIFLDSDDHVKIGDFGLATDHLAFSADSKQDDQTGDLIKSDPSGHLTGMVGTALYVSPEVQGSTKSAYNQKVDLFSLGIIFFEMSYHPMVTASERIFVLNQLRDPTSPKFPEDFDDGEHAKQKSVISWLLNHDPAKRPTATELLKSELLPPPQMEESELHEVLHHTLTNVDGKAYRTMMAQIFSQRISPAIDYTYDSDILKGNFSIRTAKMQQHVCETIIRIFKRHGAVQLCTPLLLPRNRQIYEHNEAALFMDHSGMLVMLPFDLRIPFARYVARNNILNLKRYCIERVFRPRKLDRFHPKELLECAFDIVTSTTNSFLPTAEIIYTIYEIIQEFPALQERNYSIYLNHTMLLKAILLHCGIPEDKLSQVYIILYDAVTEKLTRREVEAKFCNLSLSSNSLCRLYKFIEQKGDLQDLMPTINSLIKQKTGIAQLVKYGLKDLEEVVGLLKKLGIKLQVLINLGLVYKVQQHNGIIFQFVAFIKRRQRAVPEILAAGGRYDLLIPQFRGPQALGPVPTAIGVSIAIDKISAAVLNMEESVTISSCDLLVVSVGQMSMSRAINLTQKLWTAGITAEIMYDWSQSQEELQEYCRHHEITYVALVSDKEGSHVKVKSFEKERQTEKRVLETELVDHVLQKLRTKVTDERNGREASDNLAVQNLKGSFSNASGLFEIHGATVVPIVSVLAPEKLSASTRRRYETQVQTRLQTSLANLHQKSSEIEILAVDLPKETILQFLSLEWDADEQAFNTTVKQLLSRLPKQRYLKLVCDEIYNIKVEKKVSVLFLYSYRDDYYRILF
Assay: GCN2 enzyme assay (TR-FRET Lanthascreen, GFP-eIF2alpha phosphorylation)
Format: biochemical
Settings: 10 μM ATP, 80 nM GFP-eIF2a, 30 nM GCN2
Description: GCN2: Assay Principle & Conditions This assay can quantificate the activity of the serin kinase GCN2 (general control non-derepressible-2). This kinase is involved in the stress metabolism of cells. […] The enzymatic reaction is stopped by addition of EDTA. The amount of phosphorylated eIF2alpha is determined by TR-FRET (Lanthascreen): A complex is formed consisting of antibody and GFP labelled phospho-eIF2a, which allows a FRET upon exitation at 340 nm. […]
pIC50: −log10 of the molar value.
assay_endpoint: pIC50

Fill in pIC50 for COc1ccc(-n2nnc3cnc(N[C@@H]4CCN(C(=O)OC(C)(C)C)C4)nc32)cc1 [A65] tested with GCN2 (Homo sapiens, UniProt Q9P2K8).
5.30 to 6.00

For GCN2 (Homo sapiens, UniProt Q9P2K8), give the measured pIC50 of the entry Cc1ccc2cc(-n3nnc4cnc(N[C@@H]5CC[C@@H](C(=O)NCCC(C)(C)O)C5)nc43)ccc2n1 [A253]
> 6.00

Write down measured pIC50 (GCN2 (Homo sapiens, UniProt Q9P2K8)) for this molecule. COc1ccc(-n2nnc3cnc(N[C@@H]4CC[C@H](C(N)=O)C4)nc32)cc1 [A136]
> 6.00

Enter pIC50 (test system GCN2 (Homo sapiens, UniProt Q9P2K8)) for COc1ccc(-n2nnc3cnc(N[C@@H]4CC[C@H](CNC(=O)OC(C)(C)C)C4)nc32)cc1 (relative stereo) [A117]
> 6.00

State the measured pIC50 (GCN2 (Homo sapiens, UniProt Q9P2K8)) of COCCn1cc(-c2cccc(-n3nnc4cnc(N[C@@H]5CC[C@@H](C(N)=O)C5)nc43)c2)cn1 [A222]
> 6.00

Report pIC50 under test system GCN2 (Homo sapiens, UniProt Q9P2K8) for COCCn1cc(-c2ccc(-n3nnc4cnc(N[C@@H]5CC[C@@H](C(N)=O)C5)nc43)cn2)cn1 [A224] .
> 6.00

// fetch pIC50 for O[C@@H]1CC[C@@H](Nc2ncc3nnn(-c4ccc(OC[C@H](O)C(F)(F)F)cc4)c3n2)C1 (stereo in doubt) [A205] ; system: GCN2 (Homo sapiens, UniProt Q9P2K8)
> 6.00

Please respond with reported pIC50 (system GCN2 (Homo sapiens, UniProt Q9P2K8)) for COc1ccc(-n2nnc3cnc(N[C@H]4C[C@H](C(N)=O)C4)nc32)cc1 [A145] .
> 6.00

For GCN2 (Homo sapiens, UniProt Q9P2K8), give the measured pIC50 of the entry COc1ccc(-n2nnc3cnc(NCCc4ccccc4)nc32)cc1 [B10]
5.30 to 6.00

Give GCN2 (Homo sapiens, UniProt Q9P2K8) pIC50 for the following molecule: CCOCCn1cc(-c2ccc(-n3nnc4cnc(N[C@@H]5CC[C@@H](C(=O)NCCOC)C5)nc43)cc2)cn1 [A225]
> 6.00

Send back GCN2 (Homo sapiens, UniProt Q9P2K8) pIC50 of NC(=O)[C@H]1CC[C@@H](Nc2ncc3nnn(-c4ccc(-c5cnn(CCN6CCCC6)c5)cc4)c3n2)C1 [A216] only.
> 6.00

// fetch pIC50 for COc1ccc(-n2nnc3cnc(N[C@@H]4CCOC4)nc32)cc1 [A98] ; system: GCN2 (Homo sapiens, UniProt Q9P2K8)
> 6.00

State measured pIC50 of the molecule COc1ccc(-n2nnc3cnc(N[C@@H]4CCC[C@@H](C(N)=O)C4)nc32)cc1 (relative stereo) [A148] with GCN2 (Homo sapiens, UniProt Q9P2K8).
> 6.00

# lookup: GCN2 (Homo sapiens, UniProt Q9P2K8) pIC50, key = CCOc1ccc(-n2nnc3cnc(N[C@@H]4CC[C@@H](O)C4)nc32)cn1 (relative stereo) [A206]
> 6.00

Supply pIC50 measured with GCN2 (Homo sapiens, UniProt Q9P2K8) for CCOCCn1cc(-c2ccc(-n3nnc4cnc(N[C@@H]5CC[C@@H](C(=O)NCCO)C5)nc43)cc2)cn1 [A226] .
> 6.00

State, for GCN2 (Homo sapiens, UniProt Q9P2K8), measured pIC50 of the molecule listed here: CCOc1ccc(-n2nnc3cnc(N[C@@H]4CC[C@@H](c5nnc(C)o5)C4)nc32)cc1 [A281]
> 6.00
